Assay: Aqueous solubility in buffered solutions, HPLC (Example 2)
Format: physicochemical
Conditions: sodium bicarbonate buffer in water for injection/5% dextrose, kinetic from dmso stock, pH 9.0, 50 mM sodium bicarbonate, ambient temperature, read-out: pH 9.0 aqueous solubility
Counter-ions that a name gives are not always drawn.
List of solubility kinetic at 24 h values.

Reference set (3 entries):
Ask: Dear colleague, I am looking for the recorded solubility kinetic at 24 h of the following molecule: CC(C(=O)N(COP(=O)(O)O)c1cccc(-c2cnc(N3CCCC3C(F)(F)F)nc2)n1)n1cnc2c1c(=O)n(C)c(=O)n2C (stereo not shown) [Compound 1-A, phosphate, sodium salt]
Reply: > 1000 µg/mL

Ask: Same thing, different molecule: `C[C@@H](C(=O)N(COP(=O)(O)O)c1cncc(-c2cnc(N3CCC[C@H]3C(F)(F)F)nc2)n1)n1cnc2c1c(=O)n(C)c(=O)n2C`
Reply: > 1000 µg/mL

Ask: Same thing, different molecule: `C[C@H]1CCCN1c1ncc(-c2cncc(N(COP(=O)(O)O)C(=O)[C@H](C)n3cnc4c3c(=O)n(C)c(=O)n4C)n2)cn1`
Reply: > 1000 µg/mL

More entries:
Ask: Dear colleague, I am looking for the recorded solubility kinetic at 24 h of the following molecule: `C[C@@H](C(=O)N(COP(=O)(O)O)c1cncc(-c2cnc(N3CCCC3(C)C)nc2)n1)n1cnc2c1c(=O)n(C)c(=O)n2C`
Reply: > 1000 µg/mL

---

Assay: Aqueous solubility in buffered solutions, HPLC (Example 2)
Type: physicochemical
Conditions: sodium phosphate buffer in water for injection/5% dextrose, kinetic from dmso stock, pH 7.4, 75 mM sodium phosphate, ambient temperature, read-out: pH 7.4 aqueous solubility
Counter-ions that a name gives are not always drawn.
List of solubility kinetic at 24 h values.

Reference set (3 entries):
Ask: Dear colleague, I am looking for the recorded solubility kinetic at 24 h of the following compound: `C[C@H]1CCCN1c1ncc(-c2cncc(N(COP(=O)(O)O)C(=O)[C@H](C)n3cnc4c3c(=O)n(C)c(=O)n4C)n2)cn1`
Reply: > 1000 µg/mL

Ask: Same thing, different compound: CC(C(=O)N(COP(=O)(O)O)c1cccc(-c2cnc(N3CCCC3C(F)(F)F)nc2)n1)n1cnc2c1c(=O)n(C)c(=O)n2C (stereo not shown) [Compound 1-A, phosphate, sodium salt]
Reply: > 1000 µg/mL

Ask: Same thing, different compound: `C[C@@H](C(=O)N(COP(=O)(O)O)c1cncc(-c2cnc(N3CCCC3(C)C)nc2)n1)n1cnc2c1c(=O)n(C)c(=O)n2C`
Reply: > 1000 µg/mL

Here's the next entry for you.
Ask: Dear colleague, I am looking for the recorded solubility kinetic at 24 h of the following compound: `C[C@@H](C(=O)N(COP(=O)(O)O)c1cncc(-c2cnc(N3CCC[C@H]3C(F)(F)F)nc2)n1)n1cnc2c1c(=O)n(C)c(=O)n2C`
Reply: > 1000 µg/mL
